- Assay comment: polymyxin IC50 shift, WT versus phoP- Salmonella – S. Typhimurium, WT and phoP- strains, round 3, mechanism study for PhoP regulon inhibitor project, late-stage follow-up (AID 449735)
- Run parameters: S. Typhimurium WT vs phoP-, polymyxin IC50 shift, OD600; measured here: phoP- strain IC50 shift; at 150 µM; stronger effect = higher value
Recorded metric: polymyxin IC50 shift
Lab note: record the figure alone, no unit after it.

Worked set:
## Task Reported polymyxin IC50 shift, compound CCn1cc(C(=O)O)c(=O)c2cc(F)c(N3CCN(C(=S)Nc4ccccc4C)CC3)cc21 : ____
## Result 3.07

## Task Given the entry O=C(Nc1ccc(Cl)cc1)N1CCCN(Cc2ccc(Br)cc2)C1 , report its measured polymyxin IC50 shift.
## Result 3.29

## Task What value of measured polymyxin IC50 shift is listed for CCn1cc(C(=O)O)c(=O)c2cc(F)c(N3CCN(C(=S)Nc4ccccc4OC)CC3)cc21 ?
## Result -1.17

## Task Could you tell me which polymyxin IC50 shift is on file for O=C(Nc1ccc(I)cc1)N1CCCN(Cc2ccccc2F)C1 ?
## Result 18.2

## Task For the compound shown here, S=C(NCCc1ccc(Cl)cc1)Nc1ccncc1 , give the reported polymyxin IC50 shift.
## Result 0.26

---
## Task Param item = O=C(Nc1ccc(Cl)cc1)N1CCCN(Cc2ccccc2Br)C1 ; retrieve measured polymyxin IC50 shift.
## Result 2.09
